tested on: RPMI-8226 leukemia; assay: NCI tumour cell line growth inhibition, 48 h; in the data active means GI50 below about 0.43 µM; inactive means the rest
Classes used: True for active, False for inactive

MOLECULE | GROUP_LABEL
[CH3][Sn]([CH3])([CH3])[O]C(=O)C(O)c1ccccc1 (centres undefined) | False
O=Cc1c[nH]c2ccc(-c3csc4ccccc34)cc12 | False
COc1cc(-c2nccc3[nH]c(-c4cccc5[nH]ccc45)nc23)cc(OC)c1OC | True
Cc1ccc(-c2c3c(N)nc(-c4ccncc4)nc3nc3c2c(C)nn3-c2ccccc2)cc1 | False
O=C1NC(=O)C(N2CCc3ccccc32)=C1c1ccc(Cl)cc1 | False
CCCCCCCCCCCCNC(=O)[C@H]1CSC(c2cc(Br)cs2)N1 (some centres undefined) | False
Cc1ccc(-n2nnc3c(sc4ccccc43)c2=O)cc1 | False
CCN1CCN(CC(=O)Nc2nc3ccc(NCc4ccc(C)cc4)cc3s2)CC1 | False
O=C1c2cccc3cccc(c23)C(=O)N1CC#Cc1ccc2c3c(cccc13)C(=O)N(CCN1CCNCC1)C2=O | False

----------
Catalogue of TGI values
tested on: HS 578T breast; test: NCI tumour cell line growth inhibition, 48 h
READOUT_NAME: TGI

MOLECULE | READING
CC(C)(C)OC(=O)N(CCCCNC(=O)c1ccccc1)CCCNC(=O)c1ccccc1 | > 100 µM
COC(=O)CCN1CCN(CCO)CC1C (stereo unspecified) | > 10 µM
CC(C)(C)OC(=O)N1CCCC1C(=O)NCCNc1ccc(NCCNC(=O)C2CCCN2C(=O)OC(C)(C)C)c2c1C(=O)c1ccccc1C2=O (stereo unspecified) | 69.5 µM
CCOC(=O)c1c(SC)nc(-c2ccc(Cl)cc2)sc1=N | > 100 µM
O=C1NC(=O)/C(=C/c2ccc(S(=O)(=O)N/N=C/c3ccccc3)cc2)N1 | > 100 µM
Cc1ccc2nc3sc(=O)sc3nc2c1 | 61.8 µM

----------
tested on: ACHN renal; assay: NCI tumour cell line growth inhibition, 48 h; in the data active means GI50 below about 0.43 µM; inactive means the rest
Classes used: label 1 for active, label 0 for inactive

ITEM_SMILES | STUDY_TARGET | GROUP_LABEL
CCOP(=O)(CCN1CCN(CCCCCOc2cc3c(cc2OC)C(=O)N2CCC[C@H]2C=N3)CC1)OCC | ACHN renal | label 0
COc1ccc(-c2nnc(Nc3nc(O)c(C4=c5cc(OC(F)(F)F)ccc5=NC4=O)s3)o2)cc1 | ACHN renal | label 0
O=C(CCCCCNC1=CC(=O)c2ccccc2C1=O)NCCC[Te]c1ccccc1 | ACHN renal | label 1
Cc1ccc(-n2nnc3c(sc4ccccc43)c2=O)cc1 | ACHN renal | label 0
C[C@@H](Oc1cc(-c2cnn(C3CC4(CNC4)C3)c2)cnc1N)c1c(Cl)ccc(F)c1Cl | ACHN renal | label 0
O=C1c2cccc3cccc(c23)C(=O)N1CC#Cc1ccc2c3c(cccc13)C(=O)N(CCN1CCNCC1)C2=O | ACHN renal | label 0
Cc1ccc(-c2c3c(N)nc(-c4ccncc4)nc3nc3c2c(C)nn3-c2ccccc2)cc1 | ACHN renal | label 0
O=C(N/N=C/c1ccncc1)c1ccc(C(F)(F)F)nc1Nc1cccc(C(F)(F)F)c1 | ACHN renal | label 0
O=[N+]([O-])c1ccc(N/N=C/c2ccccc2O)nc1 | ACHN renal | label 0

----------
tested on: SR leukemia; test: NCI tumour cell line growth inhibition, 48 h

COMPOUND | UNIT_ABBREV | READING_QUALIFIER | TGI
Cc1cc(O)c2cc3c(O)c(O)ccc3cc2c1 | µM | = | 3.25
CN(CCNC(=O)c1cn(C)c2c1ccc1cc(Cl)ccc12)CCNC(=O)c1cn(C)c2c1ccc1cc(Cl)ccc12 | µM | = | 38
CCCCCCCCCCCCNC(=O)[C@H]1CSC(c2cc(Br)cs2)N1 (some centres not stated) | µM | = | 2.27
Nc1cccc2c1CN(C1CCC(=O)NC1=O)C2=O (configuration not stated) | µM | > | 100
Nc1nc2c(c(=O)[nH]1)N=C(COP(=O)(O)OP(=O)(O)O)CN2 | µM | > | 100
S=C(Nc1ccc(Cl)cc1)SC1CCCCC1 | µM | > | 100
COC(=O)CSc1n[nH]c(-c2ccccc2)n1 | µM | = | 43.5
CNC(=O)C1CCC(=O)N1CN(C(C)=O)c1ccccc1 (configuration not stated) | µM | = | 84
O=[N+]([O-])c1ccc(OP(=O)(O)OCC2OC(CP(=O)(O)O)C(O)C2O)cc1 (configuration not stated) | µM | > | 100
Cc1ccc(O)c(-c2cc(-c3ccccc3)nc(/N=C\c3ccccc3)n2)c1 | µM | > | 100
Clc1cc2nnn(C3CCCCO3)c2cc1Cl (configuration not stated) | µM | > | 100
CCOC(=O)C/C(N)=C(\C#N)C(=O)OCC | µM | > | 100

----------
tested on: RXF 393 renal; test: NCI tumour cell line growth inhibition, 48 h
Catalogue of TGI values

COMPOUND | STUDY_TARGET | UNIT_ABBREV | READING_QUALIFIER | TGI
c1ccc(-c2sc(-c3ccccc3)c3c2C2CCC3C2)cc1 | RXF 393 renal | µM | = | 84.5
CC(=O)OCC1OC(N2C(=O)CC(N)=Nc3ccccc32)C(OC(C)=O)C(OC(C)=O)C1OC(C)=O (stereo not given) | RXF 393 renal | µM | = | 95.1
COC(=O)c1c2c(c(C)[n+]([O-])c1C)C(=O)C=C(NCc1ccc(Br)cc1)C2=O | RXF 393 renal | µM | = | 2.54
N#Cc1ccc(N2Cc3cc(Cl)ccc3OC3=C2C(=O)N(Cc2ccc(F)cc2)C3=O)cc1 | RXF 393 renal | µM | = | 0.943
CCOC(=O)C(Cc1ccc2c(c1)CCC2)Cc1ccc2c(c1)CCC2 | RXF 393 renal | µM | > | 100
CC(=O)[C@H]1[C@@H](OCc2ccccc2)O[N+]([O-])=C(C)[C@@H]1c1ccccc1 | RXF 393 renal | µM | = | 34.2
CC(C)(C)C1CCP(=O)(c2ccccc2)CC1 (stereo not given) | RXF 393 renal | µM | > | 100
CNC(=O)C1CCC(=O)N1CN(C(C)=O)c1ccccc1 (stereo not given) | RXF 393 renal | µM | > | 100
Cc1cc(O)c2cc3c(O)c(O)ccc3cc2c1 | RXF 393 renal | µM | = | 14.1
O=[N+]([O-])c1ccc(N/N=C/c2ccccc2O)nc1 | RXF 393 renal | µM | > | 100

----------
system: DU-145 prostate; experiment: NCI tumour cell line growth inhibition, 48 h
Catalogue of log10(TGI) values
READOUT_NAME: log10(TGI) (log10 of the value in µM)

MOLECULE | READOUT_NAME | READING
COc1cc2c(cc1OCc1ccccc1)N=C[C@@H]1C[C@@H](F)CN1C2=O | log10(TGI) | 0.22
O=C(N/N=C/c1ccncc1)c1ccc(C(F)(F)F)nc1Nc1cccc(C(F)(F)F)c1 | log10(TGI) | 0.83
COc1cccc2c1C(=O)c1c(O)c3c(c(O)c1C2=O)C[C@@](O)(C(C)=O)C[C@@H]3OC1CC(N(C)C)C(O)C(C)O1 (some centres not stated) | log10(TGI) | -2.13
C=C1C(=O)O[C@H]2[C@H]1CC/C(COC(=O)c1cccc3ccccc13)=C\CC[C@@]1(C)O[C@@H]21 | log10(TGI) | 0.46
O=C1/C(=C/c2ccc3c(c2)OCO3)Sc2scc(-c3ccc(O)c(O)c3)[n+]21 | log10(TGI) | 1.12
CCCCCCCCCCCCNC(=O)[C@H]1CSC(c2cc(Br)cs2)N1 (some centres not stated) | log10(TGI) | 0.40
COc1ccc(-c2nnc(Nc3nc(O)c(C4=c5cc(OC(F)(F)F)ccc5=NC4=O)s3)o2)cc1 | log10(TGI) | 1.94

----------
system: K-562 leukemia; experiment: NCI tumour cell line growth inhibition, 48 h

COMPOUND | TGI
CC[C@@]1(OC(=O)C(N)CCC(=O)O)C(=O)OCc2c1cc1n(c2=O)Cc2cc3ccccc3nc2-1 (some centres undefined) | > 100 µM
N#Cc1ccc(N2Cc3cc(Cl)ccc3OC3=C2C(=O)N(Cc2ccc(F)cc2)C3=O)cc1 | 1.68 µM
Cc1cc2oc(=O)c(Cl)c(Cl)c2c(C)c1Cl | 4.39 µM
Cc1cc(O)c2c(c1)C(=O)C=C(Br)C2=O | 3.38 µM
O=C1C=Cc2c1csc2Br | 97.7 µM
Nc1nc(Cl)cc(NCC2(CO)CC(c3ccccc3)C2)n1 (centres undefined) | > 100 µM
O=CNNC(=O)CSc1nc2ccc(I)cc2c(=O)n1Cc1ccccc1 | > 100 µM
Cn1c2c(c3ccccc31)CC(=O)N1CCCC(C1)CC21OCCO1 (centres undefined) | > 100 µM
Nc1ncnc2c1nc(N)n2C1OC(CO)C(O)C1O (centres undefined) | > 100 µM
O=NNc1ccc(Sc2ccc3ccccc3c2)cn1 | > 100 µM
Cc1ccc(S(=O)(=O)N/N=C2/C3C(CC2(C)C)C2(C)CCCC3(C)C2O)cc1 (centres undefined) | > 100 µM
O=S1c2ccccc2N=C(c2ccc3ccccc3c2)CC1c1ccccc1F (centres undefined) | > 100 µM
NS(=O)(=O)c1cccc(-c2cc3ccncc3cc2OCc2ccccc2)c1 | > 25 µM
CC1C2CC(CC2O)C1(C)C (centres undefined) | > 100 µM
CNC(=O)C1CCC(=O)N1CN(C(C)=O)c1ccccc1 (centres undefined) | > 100 µM
CC(=O)Nc1c(I)c(C(=O)O)c(I)c(N(C)C(C)=O)c1I | > 100 µM
O=C1NC(=O)C(N2CCc3ccccc32)=C1c1ccc(Cl)cc1 | > 25 µM
CN(C)CCCNC(=O)c1cccc2nc3ccccc3nc12 | 60.4 µM
O=C1c2cccc3cccc(c23)C(=O)N1CC#Cc1ccc2c3c(cccc13)C(=O)N(CCN1CCNCC1)C2=O | 2.75 µM
COC(=O)c1c2c(c(C)[n+]([O-])c1C)C(=O)C=C(NCc1ccc(Br)cc1)C2=O | > 100 µM
Cc1cc(C(=O)N2CCN(C)CC2)c2c(=O)n(-c3ccccc3)c(=O)n(CC(O)CN3CCN(c4ncccn4)CC3)c2n1 (centres undefined) | > 100 µM
CCCCCCCCn1ccc2cc(NC(=O)Cn3cc(CN4CCC(C)CC4)nn3)ccc21 | 3.51 µM
O=C1/C(=C/c2ccc3c(c2)OCO3)Sc2scc(-c3ccc(O)c(O)c3)[n+]21 | 2.93 µM
COc1cc(-c2ccccc2)c(OC)cc1CCl | > 100 µM
COc1ccc(/C=N/NS(=O)(=O)c2ccc(/C=C3\NC(=O)N(C)C3=O)cc2)cc1 | > 100 µM
CCCCCCCCCCCCNC(=O)[C@H]1CSC(c2cc(Br)cs2)N1 (some centres undefined) | 2.46 µM
O=C(CCCCCNC1=CC(=O)c2ccccc2C1=O)NCCC[Te]c1ccccc1 | 3.83 µM
CC(C)(C)C1CCP(=O)(c2ccccc2)CC1 (centres undefined) | > 100 µM
C=CC(=O)N1CC2(CC(n3nc(-c4ccc(Oc5ccccc5)cc4)c4c(N)ncnc43)C2)C1 | > 100 µM
c1csc(-c2sc(-c3ccsc3)cc2Cc2ccsc2)c1 | > 10 µM
[O-]/N=N\c1on[n+](CCc2ccccc2)c1Cc1c(/N=N/[O-])on[n+]1CCc1ccccc1 | 65 µM
COc1ccc(/C=C/c2ccnc3ccccc23)cc1 | 23.2 µM
Cc1ccc([S+](c2ccccc2)c2cc(C)ccc2C)cc1 (centres undefined) | > 100 µM
Clc1cc2nnn(C3CCCCO3)c2cc1Cl (centres undefined) | > 100 µM
c1csc(-c2cscc2-c2cccs2)c1 | > 100 µM
COC1=CCC2=C(CCN(C(=O)C3CC3)C2Cc2ccc(OC)c(O)c2)C1 (centres undefined) | > 100 µM
Cc1ccc(-n2nnc3c(sc4ccccc43)c2=O)cc1 | > 100 µM
c1csc(-c2ccc(-c3ccsc3)s2)c1 | > 100 µM
Oc1ccc(NCc2cc(O)ccc2O)cc1 | 55.2 µM
c1ccc(N=C2C(=Nc3ccccc3)N(C3CCCCC3)C(=NC3CCCCC3)N2c2ccccc2)cc1 | > 100 µM
O=C(N/N=C/c1ccncc1)c1ccc(C(F)(F)F)nc1Nc1cccc(C(F)(F)F)c1 | 11.8 µM
O=c1c(-c2ccc3c(c2)OCO3)coc2c(CO)c(O)ccc12 | > 100 µM
O=C(Nc1ccccc1)c1cc2c(cc1Cl)SC(NNCCO)=NS2(=O)=O | > 100 µM
CC(C)CNC(=O)c1c(NC(=O)c2ccccc2)sc2[nH]c(=O)n(-c3ccccc3)c(=O)c12 | > 86.9 µM
